biological target: plasma purified human AT-III (antithrombin III); test: AT-III/UFH inhibition K0.5, ratio to Catalyst Biosciences WT FIXa
Outcome measure: K0.5-mut/K0.5-wt

Data request: Look up K0.5-mut/K0.5-wt of FIXa-K228N/R318Y/R338E/R403E/E410N (protein) chain 1: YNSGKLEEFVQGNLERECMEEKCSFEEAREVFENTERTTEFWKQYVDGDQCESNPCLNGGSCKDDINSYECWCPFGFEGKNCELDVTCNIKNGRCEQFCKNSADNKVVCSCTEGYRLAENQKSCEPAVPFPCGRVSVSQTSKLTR chain 2: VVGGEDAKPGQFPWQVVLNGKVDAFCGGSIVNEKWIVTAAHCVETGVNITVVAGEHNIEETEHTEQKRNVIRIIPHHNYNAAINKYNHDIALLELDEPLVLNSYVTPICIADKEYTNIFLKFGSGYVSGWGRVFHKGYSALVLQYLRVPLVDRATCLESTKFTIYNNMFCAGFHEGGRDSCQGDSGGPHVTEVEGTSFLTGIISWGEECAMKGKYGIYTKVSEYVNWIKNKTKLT and report it.
Data returned: > 517
